Test system: Tat-hybrid reporter cell lines (HeLa)
Test: MTT cell viability run in parallel with the Tat-hybrid assay
Format: cell-based
Conditions: Table 6; at 50,000 nM
MEASURED METRIC: Tat hybrid cell viability at 50,000 nM

1. Cc1ccc2nc3sc(C(N)=O)c(N)c3cc2c1    X (X = >60%)
2. COc1ccc(-c2cc(C3CC3)nc3sc(C(N)=O)c(N)c23)cc1    X (X = >60%)
3. CN(C)c1ccnc2sc(C(N)=O)c(N)c12 [drawing 241]    Y (Y = 30-60%)
4. Cc1cc(C)c2c(N)c(C(N)=O)sc2n1    Z (Z = <30%)
5. COC(=O)c1sc2nc(C)cc(C)c2c1N    X (X = >60%)
6. NC(=O)c1sc2nc3c(cc2c1N)C(=O)CCC3    X (X = >60%)
7. COCc1cc(C)nc2sc(C(=O)Nc3ccc(NC(C)=O)cc3)c(N)c12    X (X = >60%)
8. N#Cc1c(N)nc2sc(C(=O)Nc3ccc(Cl)cc3)c(N)c2c1-c1cccs1    X (X = >60%)
9. Cc1cc(C)c2c(N)c(C(=O)NCC(=O)O)sc2n1    X (X = >60%)
10. N#Cc1c(N)nc2sc(C(N)=O)c(N)c2c1-c1ccc(Br)cc1    X (X = >60%)
11. Cc1nc2sc(C(=O)c3ccccc3)c(N)c2c(C)c1C    X (X = >60%)
12. NC(=O)c1sc2nc(-c3cccs3)cc(C(F)(F)F)c2c1N    Y (Y = 30-60%)
13. COCc1cc(C)c2c(N)c(C(N)=O)sc2n1    Y (Y = 30-60%)
14. NC(=O)c1sc2nc(-c3ccccc3)ccc2c1N    X (X = >60%)
15. CCc1ccc2nc3sc(C(N)=O)c(N)c3cc2c1    X (X = >60%)
16. NC(=O)c1sc2nc(C34CC5CC(CC(C5)C3)C4)ccc2c1N    X (X = >60%)
17. NC(=O)c1sc2nc3c(c(-c4ccco4)c2c1N)CCCC3    X (X = >60%)
18. Cc1cc2cc3c(N)c(C(N)=O)sc3nc2cc1C    X (X = >60%)
19. COc1ccc(-c2c(C(=O)Nc3ccccc3)c(C)nc3sc(C(N)=O)c(N)c23)cc1    X (X = >60%)
20. COCc1cc(C)nc2sc(C(=O)Nc3ccc(C(C)=O)cc3)c(N)c12    X (X = >60%)
21. Cc1cc(C)c2cc3c(N)c(C(N)=O)sc3nc2c1    Z (Z = <30%)
22. N#Cc1c(N)nc2sc(C(=O)Nc3ccc(Br)cc3)c(N)c2c1-c1cccs1    X (X = >60%)
23. COc1cc2cc3c(N)c(C(N)=O)sc3nc2cc1OC    X (X = >60%)
24. Cc1nc2sc(C(N)=O)c(N)c2c(C)c1C    X (X = >60%)
25. C=CCN(CC=C)C(=O)c1sc2nc(C)c(Cl)c(C)c2c1N    X (X = >60%)
26. COC(=O)c1sc2nc(C)c(C)c(C)c2c1N    Y (Y = 30-60%)
27. NC(=O)c1sc2nc3c(c(-c4cccnc4)c2c1N)CCC3    Z (Z = <30%)
28. Cc1ccc2cc3c(N)c(C(N)=O)sc3nc2c1C    X (X = >60%)
29. NC(=O)c1sc2nc(-c3ccccc3)cc(C(F)(F)F)c2c1N    X (X = >60%)
30. NC(=O)c1sc2nc(-c3ccc(Cl)cc3)cc(-c3ccc(Cl)cc3)c2c1N    X (X = >60%)
31. CN1CCc2nc3sc(C(N)=O)c(N)c3cc2C1    X (X = >60%)
32. CN(C)c1ccnc2sc(C(=O)NCc3ccccc3)c(N)c12    Y (Y = 30-60%)
33. NC(=O)c1sc2nc(-c3ccc(F)cc3)cc(-c3ccccc3)c2c1N    X (X = >60%)
34. Cc1ccc2c(N)c(C(N)=O)sc2n1 [drawing 277]    X (X = >60%)
35. COCc1cc(C)nc2sc(C(=O)c3ccc(Cl)cc3)c(N)c12    X (X = >60%)
36. COCc1cc(C)nc2sc(C(=O)OC)c(N)c12    X (X = >60%)
37. NC(=O)c1sc2nc3c(cc2c1N)CCCC3    X (X = >60%)
38. CC(=O)C1=C(C)Nc2sc(C(N)=O)c(N)c2C1c1cccnc1 (stereo not shown)    X (X = >60%)
39. Cc1cc(NC(=O)c2sc3nc(C)c(C)c(C)c3c2N)no1    X (X = >60%)
40. Cc1ccc2c(N)c(C(N)=O)sc2n1 [drawing 227]    X (X = >60%)
41. CCc1nc2sc(C(N)=O)c(N)c2cc1C    X (X = >60%)
42. COC(=O)c1sc2nccc(N(C)C)c2c1N    X (X = >60%)
43. NC(=O)c1sc2nc3c(cc2c1N)CCCCC3    X (X = >60%)
44. CCc1nnc(NC(=O)c2sc3nc(C)cc(COC)c3c2N)s1    X (X = >60%)
45. Cc1cc(C(F)(F)F)nc2sc(C(N)=O)c(N)c12    Y (Y = 30-60%)
46. COc1ccc2cc3c(N)c(C(N)=O)sc3nc2c1    Y (Y = 30-60%)
47. CC(C)c1ccc2nc3sc(C(N)=O)c(N)c3cc2c1    X (X = >60%)
48. Cc1ccc(-c2cc(C(F)F)nc3sc(C(N)=O)c(N)c23)cc1    X (X = >60%)
49. CCc1c(C)nc2sc(C(N)=O)c(N)c2c1C    Y (Y = 30-60%)
